# assay.overview: Biodistribution 180 minutes after the injection
# Format: in vivo
# stated.conditions: rabbit, liver, iv, total radioactivity, WHHL rabbits (n = 3), read-out: Biodistribution, Liver
Where a SMILES comes first, the peptide text is derived from it. [ ]: non-standard residue; d: D form. Tyr(3-I) = N[C@@H](Cc1ccc(O)c(I)c1)C(=O)O

compound: CC[C@H](C)[C@H](NC(=O)[C@H](C)NC(=O)[C@H](CC(C)C)NC(=O)[C@H](CCCNC(=N)N)NC(=O)[C@@H](N)Cc1ccc(O)c(I)c1)C(=O)N[C@@H](CCCNC(=N)N)C(=O)N[C@@H](CC(C)C)C(=O)N[C@@H](CC(N)=O)C(=O)N[C@@H](CCC(=O)O)C(=O)N[C@@H](CCCNC(=N)N)C(=O)O [^123I-B2702.84-75] (H-[Tyr(3-I)]RLAIRLNER-OH; N-terminus and C-terminus assumed)
tissue uptake at 3 h: 0.096 %ID/g

----------
# assay.overview: Biodistribution 180 minutes after the injection
# Format: in vivo
# stated.conditions: rabbit, heart, iv, total radioactivity, WHHL rabbits (n = 3), read-out: Biodistribution, Heart
# Description: Samples of blood were taken 1, 2, 5, 10, 15, 20, 25 and 30 minutes after injection of the tracers. The animals were euthanased 30 minutes (examples 2, 3 and 4) or 180 minutes (examples 5 and 6) after injection of the labelled VCAM-1 ligands. Samples of the principal organs were taken. These samples, as well as the blood samples taken, were counted for the radioactivity which they contain. […] The binding values are expressed as a percentage of the injected dose per gram of organ (% ID/g).
Where a SMILES comes first, the peptide text is derived from it. [ ]: non-standard residue; d: D form. Tyr(3-I) = N[C@@H](Cc1ccc(O)c(I)c1)C(=O)O

compound: CC[C@H](C)[C@H](NC(=O)[C@H](C)NC(=O)[C@H](CC(C)C)NC(=O)[C@H](CCCNC(=N)N)NC(=O)[C@@H](N)Cc1ccc(O)c(I)c1)C(=O)N[C@@H](CCCNC(=N)N)C(=O)N[C@@H](CC(C)C)C(=O)N[C@@H](CC(N)=O)C(=O)N[C@@H](CCC(=O)O)C(=O)N[C@@H](CCCNC(=N)N)C(=O)O [^123I-B2702.84-75] (H-[Tyr(3-I)]RLAIRLNER-OH; N-terminus and C-terminus assumed)
readout.unit: %ID/g
tissue uptake at 3 h: 0.088

----------
# assay.overview: Biodistribution 180 minutes after the injection
# Format: in vivo
# stated.conditions: rabbit, stomach, iv, total radioactivity, Control rabbits (n = 3), read-out: Biodistribution, Stomach
# Description: Samples of blood were taken 1, 2, 5, 10, 15, 20, 25 and 30 minutes after injection of the tracers. The animals were euthanased 30 minutes (examples 2, 3 and 4) or 180 minutes (examples 5 and 6) after injection of the labelled VCAM-1 ligands. Samples of the principal organs were taken. These samples, as well as the blood samples taken, were counted for the radioactivity which they contain. […] The binding values are expressed as a percentage of the injected dose per gram of organ (% ID/g).
Where a SMILES comes first, the peptide text is derived from it. [ ]: non-standard residue; d: D form. Tyr(3-I) = N[C@@H](Cc1ccc(O)c(I)c1)C(=O)O

compound: CC[C@H](C)[C@H](NC(=O)[C@H](C)NC(=O)[C@H](CC(C)C)NC(=O)[C@H](CCCNC(=N)N)NC(=O)[C@@H](N)Cc1ccc(O)c(I)c1)C(=O)N[C@@H](CCCNC(=N)N)C(=O)N[C@@H](CC(C)C)C(=O)N[C@@H](CC(N)=O)C(=O)N[C@@H](CCC(=O)O)C(=O)N[C@@H](CCCNC(=N)N)C(=O)O [^123I-B2702.84-75] (H-[Tyr(3-I)]RLAIRLNER-OH; N-terminus and C-terminus assumed)
tissue uptake at 3 h (%ID/g): 0.095

----------
# assay.overview: Biodistribution 180 minutes after the injection
# Type: in vivo
# stated.conditions: rabbit, spleen, iv, total radioactivity, WHHL rabbits (n = 3), read-out: Biodistribution, Spleen
Where a SMILES comes first, the peptide text is derived from it. [ ]: non-standard residue; d: D form. Tyr(3-I) = N[C@@H](Cc1ccc(O)c(I)c1)C(=O)O
reported.metric: tissue uptake at 3 h (%ID/g)

compound: CC[C@H](C)[C@H](NC(=O)[C@H](C)NC(=O)[C@H](CC(C)C)NC(=O)[C@H](CCCNC(=N)N)NC(=O)[C@@H](N)Cc1ccc(O)c(I)c1)C(=O)N[C@@H](CCCNC(=N)N)C(=O)N[C@@H](CC(C)C)C(=O)N[C@@H](CC(N)=O)C(=O)N[C@@H](CCC(=O)O)C(=O)N[C@@H](CCCNC(=N)N)C(=O)O [^123I-B2702.84-75] (H-[Tyr(3-I)]RLAIRLNER-OH; N-terminus and C-terminus assumed)
readout.unit: %ID/g
reading: 0.089

----------
# assay.overview: Biodistribution 180 minutes after the injection
# Type: in vivo
# stated.conditions: rabbit, kidney, iv, total radioactivity, Control rabbits (n = 3), read-out: Biodistribution, Kidney
Where a SMILES comes first, the peptide text is derived from it. [ ]: non-standard residue; d: D form. Tyr(3-I) = N[C@@H](Cc1ccc(O)c(I)c1)C(=O)O
reported.metric: tissue uptake at 3 h (%ID/g)

molecule: CC[C@H](C)[C@H](NC(=O)[C@H](C)NC(=O)[C@H](CC(C)C)NC(=O)[C@H](CCCNC(=N)N)NC(=O)[C@@H](N)Cc1ccc(O)c(I)c1)C(=O)N[C@@H](CCCNC(=N)N)C(=O)N[C@@H](CC(C)C)C(=O)N[C@@H](CC(N)=O)C(=O)N[C@@H](CCC(=O)O)C(=O)N[C@@H](CCCNC(=N)N)C(=O)O [^123I-B2702.84-75] (H-[Tyr(3-I)]RLAIRLNER-OH; N-terminus and C-terminus assumed)
reading: 0.307

----------
# assay.overview: Biodistribution 180 minutes after the injection
# Format: in vivo
# stated.conditions: rabbit, liver, iv, total radioactivity, Control rabbits (n = 3), read-out: Biodistribution, Liver
Where a SMILES comes first, the peptide text is derived from it. [ ]: non-standard residue; d: D form. Tyr(3-I) = N[C@@H](Cc1ccc(O)c(I)c1)C(=O)O

compound: CC[C@H](C)[C@H](NC(=O)[C@H](C)NC(=O)[C@H](CC(C)C)NC(=O)[C@H](CCCNC(=N)N)NC(=O)[C@@H](N)Cc1ccc(O)c(I)c1)C(=O)N[C@@H](CCCNC(=N)N)C(=O)N[C@@H](CC(C)C)C(=O)N[C@@H](CC(N)=O)C(=O)N[C@@H](CCC(=O)O)C(=O)N[C@@H](CCCNC(=N)N)C(=O)O [^123I-B2702.84-75] (H-[Tyr(3-I)]RLAIRLNER-OH; N-terminus and C-terminus assumed)
readout.unit: %ID/g
tissue uptake at 3 h: 0.086

----------
# assay.overview: Biodistribution 180 minutes after the injection
# Assay type: in vivo
# stated.conditions: rabbit, muscle, iv, total radioactivity, Control rabbits (n = 3), read-out: Biodistribution, Muscle
Where a SMILES comes first, the peptide text is derived from it. [ ]: non-standard residue; d: D form. Tyr(3-I) = N[C@@H](Cc1ccc(O)c(I)c1)C(=O)O

compound: CC[C@H](C)[C@H](NC(=O)[C@H](C)NC(=O)[C@H](CC(C)C)NC(=O)[C@H](CCCNC(=N)N)NC(=O)[C@@H](N)Cc1ccc(O)c(I)c1)C(=O)N[C@@H](CCCNC(=N)N)C(=O)N[C@@H](CC(C)C)C(=O)N[C@@H](CC(N)=O)C(=O)N[C@@H](CCC(=O)O)C(=O)N[C@@H](CCCNC(=N)N)C(=O)O [^123I-B2702.84-75] (H-[Tyr(3-I)]RLAIRLNER-OH; N-terminus and C-terminus assumed)
tissue uptake at 3 h / %ID/g: 0.028

----------
# assay.overview: Biodistribution 180 minutes after the injection
# Format: in vivo
# stated.conditions: rabbit, aorta, iv, total radioactivity, WHHL rabbits (n = 3), read-out: Biodistribution, Aorta
Where a SMILES comes first, the peptide text is derived from it. [ ]: non-standard residue; d: D form. Tyr(3-I) = N[C@@H](Cc1ccc(O)c(I)c1)C(=O)O
reported.metric: tissue uptake at 3 h (%ID/g)

compound: CC[C@H](C)[C@H](NC(=O)[C@H](C)NC(=O)[C@H](CC(C)C)NC(=O)[C@H](CCCNC(=N)N)NC(=O)[C@@H](N)Cc1ccc(O)c(I)c1)C(=O)N[C@@H](CCCNC(=N)N)C(=O)N[C@@H](CC(C)C)C(=O)N[C@@H](CC(N)=O)C(=O)N[C@@H](CCC(=O)O)C(=O)N[C@@H](CCCNC(=N)N)C(=O)O [^123I-B2702.84-75] (H-[Tyr(3-I)]RLAIRLNER-OH; N-terminus and C-terminus assumed)
readout.unit: %ID/g
reading: 0.034
